- MEASURED ON: Acetylcholinesterase (Electrophorus electricus, UniProt O42275)
- Sequence (O42275 whole entry): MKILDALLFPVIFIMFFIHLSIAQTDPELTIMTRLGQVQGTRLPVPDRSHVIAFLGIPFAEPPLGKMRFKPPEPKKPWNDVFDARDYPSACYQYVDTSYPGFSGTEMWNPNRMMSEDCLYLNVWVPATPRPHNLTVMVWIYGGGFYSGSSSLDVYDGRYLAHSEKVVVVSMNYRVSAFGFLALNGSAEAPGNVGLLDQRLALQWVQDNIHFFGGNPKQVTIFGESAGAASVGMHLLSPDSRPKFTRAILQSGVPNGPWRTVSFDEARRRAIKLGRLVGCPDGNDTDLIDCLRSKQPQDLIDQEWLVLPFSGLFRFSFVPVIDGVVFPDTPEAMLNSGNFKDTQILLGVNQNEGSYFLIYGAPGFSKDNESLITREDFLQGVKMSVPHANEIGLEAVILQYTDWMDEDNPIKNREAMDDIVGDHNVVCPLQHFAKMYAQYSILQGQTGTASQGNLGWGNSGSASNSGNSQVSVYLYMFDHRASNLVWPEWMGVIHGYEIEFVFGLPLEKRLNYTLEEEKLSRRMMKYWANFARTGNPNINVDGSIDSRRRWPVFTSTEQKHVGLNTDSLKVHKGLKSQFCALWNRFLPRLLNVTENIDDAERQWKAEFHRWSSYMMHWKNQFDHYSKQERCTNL
In this section, each of the molecules is paired with its reported IC50.

Would you please look over these solved cases?
> print(dat)
                               smiles.input                               measured.on  property  observed.value
1  O=C(CNc1ccc(Cl)cc1)Nc1ccc(-c2nc(-c3ccnc(Nc4ccc(OC(F)(F)F)cc4)c3)no2)cc1  Acetylcholinesterase (Electrophorus electricus, UniProt O42275)      IC50         45.2 µM
2  Cc1ccc(NCC(=O)Nc2ccc(-c3nc(-c4ccnc(Nc5ccc(OC(F)(F)F)cc5)c4)no3)cc2)cc1  Acetylcholinesterase (Electrophorus electricus, UniProt O42275)      IC50         > 50 µM

Next molecule, IC50 to be filled in.
Task item: Input "CCCCNCC(=O)Nc1ccc(-c2nc(-c3ccnc(Nc4ccc(OC(F)(F)F)cc4)c3)no2)cc1" , output reported IC50.
Reply: > 50 µM

* * *

- METHOD NOTES: Cytotoxicity against rat PC-12 cells assessed as cell viability at 25 uM incubated for 24 hrs by MTT assay relative to control
- Assay type: toxicity, cell-based
- STUDY CONDITIONS: read-out: Activity
In this section, each of the compounds is paired with its reported viability at 24 h, 25 µM.

Would you please look over these solved cases?
> print(dat)
                               smiles.input  observed.value
1  O=C(CNCc1ccc(F)cc1)Nc1ccc(-c2nc(-c3ccnc(Nc4ccc(OC(F)(F)F)cc4)c3)no2)cc1            100%
2  O=C(CNC1CCCC1)Nc1ccc(-c2nc(-c3ccnc(Nc4ccc(OC(F)(F)F)cc4)c3)no2)cc1           99.5%

Task item: Input "O=C(CNc1cccc(Cl)c1)Nc1ccc(-c2nc(-c3ccnc(Nc4ccc(OC(F)(F)F)cc4)c3)no2)cc1" , output reported viability at 24 h, 25 µM.
Reply: 99.4%

Task item: Input "CCCCNCC(=O)Nc1ccc(-c2nc(-c3ccnc(Nc4ccc(OC(F)(F)F)cc4)c3)no2)cc1" , output reported viability at 24 h, 25 µM.
Reply: 99.9%

* * *

In this section, each of the molecules is paired with its reported viability at 24 h, 25 µM.
- METHOD NOTES: Cytotoxicity against rat PC-12 cells assessed as cell viability at 25 uM incubated for 24 hrs by MTT assay relative to control
- Type: toxicity, cell-based
- STUDY CONDITIONS: read-out: Activity
A complete answer gives the number followed by the unit.

> print(dat)
                               smiles.input                  property  observed.value
1  O=C(CNc1ccc(F)cc1)Nc1ccc(-c2nc(-c3ccnc(Nc4ccc(OC(F)(F)F)cc4)c3)no2)cc1  viability at 24 h, 25 µM           99.7%
2  O=c1c(O)c(-c2ccc(O)c(O)c2)oc2cc(O)cc(O)c12  viability at 24 h, 25 µM           99.6%
3  O=C(CNc1ccc(C(F)(F)F)cc1)Nc1ccc(-c2nc(-c3ccnc(Nc4ccc(OC(F)(F)F)cc4)c3)no2)cc1  viability at 24 h, 25 µM           99.9%

Next molecule, viability at 24 h, 25 µM to be filled in.
Task item: Input "O=C(CNc1cccc(F)c1)Nc1ccc(-c2nc(-c3ccnc(Nc4ccc(OC(F)(F)F)cc4)c3)no2)cc1" , output reported viability at 24 h, 25 µM.
Reply: 99.6%
